target: adenosine 1 receptor (Homo sapiens); assay: Agonist activity against adenosine 1 receptor (CHO cells, forskolin-enhanced cAMP/SPAP reporter); type: cell-based; conditions: CHO cells transfected with human receptor; forskolin-enhanced cAMP via SPAP; mean of all the versions tested
Sequence (P30542 whole entry): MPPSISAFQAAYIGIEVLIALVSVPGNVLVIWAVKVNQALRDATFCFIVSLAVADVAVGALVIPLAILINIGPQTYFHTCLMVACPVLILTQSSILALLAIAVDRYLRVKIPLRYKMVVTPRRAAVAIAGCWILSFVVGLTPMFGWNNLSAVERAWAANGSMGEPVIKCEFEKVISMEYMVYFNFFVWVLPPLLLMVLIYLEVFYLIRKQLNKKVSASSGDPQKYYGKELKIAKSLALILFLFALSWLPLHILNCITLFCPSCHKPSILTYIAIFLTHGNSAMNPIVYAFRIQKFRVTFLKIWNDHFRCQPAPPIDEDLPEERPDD
Counter-ions that a name gives are not always drawn.
Item-by-item account of A1 EC50 as a ratio of that of NECA
Number only, no unit.

Below are worked cases with known answers.
[[record]]
compound = "CCn1nnc(C2OC(n3cnc4c(NCCc5ccccc5)nc(NCCN5CCCCC5)nc43)C(O)C2O)n1.O=CO.O=CO (stereo not drawn)"
tested_target = "adenosine 1 receptor (Homo sapiens)"
value = 321.00

[[record]]
compound = "Cn1nnc(C2OC(n3cnc4c(NCC(c5ccccc5)c5ccccc5)nc(NC5CCC(N)CC5)nc43)C(O)C2O)n1.O=CO.O=CO (stereo not drawn)"
tested_target = "adenosine 1 receptor (Homo sapiens)"
value = 922.00


Could you now look at the following compound, please?
Ask: Consider the compound shown here: CCn1nnc(C2OC(n3cnc4c(N)nc(NC5CCCC5O)nc43)C(O)C2O)n1 (stereo not drawn) [Example 10, Hydrochloride] What is its recorded A1 EC50 as a ratio of that of NECA?
Result: 22.1
